// data source = ChEMBL document CHEMBL3421623

Target: Estrogen receptor beta (Homo sapiens)
Sequence (Q92731 whole entry): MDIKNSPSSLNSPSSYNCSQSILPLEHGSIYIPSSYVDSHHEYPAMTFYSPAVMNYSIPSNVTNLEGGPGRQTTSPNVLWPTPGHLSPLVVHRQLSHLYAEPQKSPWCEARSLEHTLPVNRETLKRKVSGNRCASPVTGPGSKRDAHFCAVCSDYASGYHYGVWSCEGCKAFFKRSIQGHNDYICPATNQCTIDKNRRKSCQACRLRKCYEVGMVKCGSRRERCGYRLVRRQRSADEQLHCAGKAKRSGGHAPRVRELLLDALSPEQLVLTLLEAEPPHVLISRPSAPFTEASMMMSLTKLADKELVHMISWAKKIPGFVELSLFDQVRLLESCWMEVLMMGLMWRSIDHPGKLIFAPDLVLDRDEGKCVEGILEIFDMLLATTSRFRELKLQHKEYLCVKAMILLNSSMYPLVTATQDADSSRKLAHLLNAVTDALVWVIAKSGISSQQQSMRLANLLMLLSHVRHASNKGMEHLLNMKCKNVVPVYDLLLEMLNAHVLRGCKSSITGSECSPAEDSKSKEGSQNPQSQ
Assay: Displacement of fluorescein-labeled ES2 from human recombinant ERbeta receptor at 100000 nM after 2 hrs by fluorescence polarization assay
Endpoint label: Activity (%)

Solved cases (6 shown):
N#CC/C(=C(/c1ccc(O)cc1)c1ccc(OCCN)cc1)c1ccccc1 (mixture of isomers)    64
CC/C(=C(/c1ccc(O)cc1)c1ccc(OCCO)cc1)c1ccccc1 (mixture of isomers)    56
CC/C(=C(/c1ccc(O)cc1)c1ccc(OCCBr)cc1)c1ccccc1 (mixture of isomers)    60
CC/C(=C(/c1ccc(O)cc1)c1ccc(OCCCl)cc1)c1ccccc1 (mixture of isomers)    40
NCCOc1ccc(/C(=C(\Cn2ccnc2)c2ccccc2)c2ccc(O)cc2)cc1 (mixture of isomers)    74
CC/C(=C(/c1ccc(O)cc1)c1ccc(OCC(=O)O)cc1)c1ccccc1 (mixture of isomers)    57

I = CC(C)/C(=C(/c1ccc(O)cc1)c1ccc(OCCN)cc1)c1ccccc1 (mixture of isomers)
II = CC/C(=C(/c1ccccc1)c1ccc(OCCN)cc1)c1ccccc1 (mixture of isomers)
input: Between I and II , whose recorded Activity is greater? Response format: the label of the selected entry.
output: I
(I: 68%, II: 0%)
